target_or_system: T1, NPY2 receptor (human (printed as hNPY2R), UniProt P49146 1-381)
T1 sequence (looked up): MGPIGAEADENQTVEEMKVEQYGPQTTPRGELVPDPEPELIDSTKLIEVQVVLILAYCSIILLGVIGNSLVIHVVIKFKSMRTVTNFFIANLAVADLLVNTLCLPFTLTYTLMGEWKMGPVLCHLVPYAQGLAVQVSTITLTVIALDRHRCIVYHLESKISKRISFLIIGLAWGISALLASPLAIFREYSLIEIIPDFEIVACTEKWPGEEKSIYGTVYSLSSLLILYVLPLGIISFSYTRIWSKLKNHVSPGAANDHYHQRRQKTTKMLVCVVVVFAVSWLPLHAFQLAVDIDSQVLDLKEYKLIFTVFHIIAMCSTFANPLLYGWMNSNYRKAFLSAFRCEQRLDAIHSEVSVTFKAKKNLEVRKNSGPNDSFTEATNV
experiment: cell-based or functional assay
Starred links: 1 amine or outer side, 2 acyl side, 3 side chain; linkers in the order of their positions; H or OH if unused. Non-standard residues stand in square brackets, D forms with d. Groups on a side chain read outwards from the residue. No end group written: not given here. *: point of attachment. C20 diacid = O=C(O)CCCCCCCCCCCCCCCCCCC(=O)*; C18 diacid = O=C(O)CCCCCCCCCCCCCCCCC(=O)*; γGlu = O=C(O)[C@H](CCC(=O)[*:2])N[*:1]; εLys = N[C@@H](CCCCN[*:1])C(=O)[*:2]; AEEA = NCCOCCOCC(=O)O; Aib = CC(C)(N)C(=O)O
measured_parameter: EC50 hNPY2R 0.5% hP (CreLuc)

binder	EC50 hNPY2R 0.5% hP (CreLuc)
Y[Aib]EGTFTSDYSI[Aib]LEKQAQ[Aib]AFVQWLIK([εLys-γGlu-γGlu-γGlu-γGlu-γGlu-C20 diacid])GGPSEYASLRHYYNWLTRQRY-NH2 (also: TFA salt) [Compound 189]	8.03 nM

Briefly, EC50 hNPY2R 0.5% hP (CreLuc) measured for Y[Aib]EGTFTSDYSI[Aib]LEKQAE[Aib]AFVEWLIK([AEEA-AEEA-γGlu-γGlu-γGlu-γGlu-C18 diacid])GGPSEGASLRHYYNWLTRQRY-NH2 (also: TFA salt) [Compound 251] : 20.6 nM

Briefly, EC50 hNPY2R 0.5% hP (CreLuc) measured for YXEGTFTSDYSIXLEKQAQXAFVEWLIKGGPSSGALLRHYYNWLTRQRY (Aib at 2, 13, 20; K28 side chain carries C20DA-gGlu-gGlu-gGlu-gGlu-gGlu-gGlu-eLys; C-terminal amide) [Compound 197] : 42.6 nM

These data points were gathered from patent US20240247080A1.
